Target desc: AChE purified from Electrophorus electricus (Electric eel) (Electrophorus electricus, UniProt O42275)
Sequence (O42275 24-633): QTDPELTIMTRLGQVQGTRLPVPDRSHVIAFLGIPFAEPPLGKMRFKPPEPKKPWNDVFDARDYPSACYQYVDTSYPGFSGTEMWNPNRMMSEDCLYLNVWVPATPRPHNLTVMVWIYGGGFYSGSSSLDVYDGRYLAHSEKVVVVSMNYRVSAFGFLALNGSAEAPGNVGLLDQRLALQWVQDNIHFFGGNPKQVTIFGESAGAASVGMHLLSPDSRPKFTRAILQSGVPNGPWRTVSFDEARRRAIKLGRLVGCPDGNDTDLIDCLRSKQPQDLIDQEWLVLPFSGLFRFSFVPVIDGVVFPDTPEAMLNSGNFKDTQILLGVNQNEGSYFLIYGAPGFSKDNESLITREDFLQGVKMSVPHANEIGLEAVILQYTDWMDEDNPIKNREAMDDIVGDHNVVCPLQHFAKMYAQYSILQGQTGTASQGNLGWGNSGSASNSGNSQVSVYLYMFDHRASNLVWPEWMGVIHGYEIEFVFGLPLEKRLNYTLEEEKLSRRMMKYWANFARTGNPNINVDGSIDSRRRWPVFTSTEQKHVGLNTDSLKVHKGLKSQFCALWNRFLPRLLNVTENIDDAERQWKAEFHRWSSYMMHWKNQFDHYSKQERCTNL
pKi: −log10 of the molar value.
Measurement label: pKi

CC(C)OC(=O)CCC(=O)Nc1ccncc1N [Compound 32]: 5.52
